Tested on: MDA-MB-468
Assay: Cytotoxicity against human MDA-MB-468 cells assessed as reduction in cell viability incubated for 24 hrs by CellTiter-Glo luminescent assay
Format: functional, cell-based
Conditions: mda-mb-468
pIC50: −log10 of the molar value.
measuredParameter: pIC50

chemSmiles	target	endpointResult
Cc1c(-c2ccc(-c3ccccc3F)cc2)nc2ccc(F)cc2c1C(=O)O	MDA-MB-468	7.09

###

Reported values of IC50 for individual entries
Molecular target: UniProtKB Q02127
Sequence (Q02127 whole entry, the tested form may be a part): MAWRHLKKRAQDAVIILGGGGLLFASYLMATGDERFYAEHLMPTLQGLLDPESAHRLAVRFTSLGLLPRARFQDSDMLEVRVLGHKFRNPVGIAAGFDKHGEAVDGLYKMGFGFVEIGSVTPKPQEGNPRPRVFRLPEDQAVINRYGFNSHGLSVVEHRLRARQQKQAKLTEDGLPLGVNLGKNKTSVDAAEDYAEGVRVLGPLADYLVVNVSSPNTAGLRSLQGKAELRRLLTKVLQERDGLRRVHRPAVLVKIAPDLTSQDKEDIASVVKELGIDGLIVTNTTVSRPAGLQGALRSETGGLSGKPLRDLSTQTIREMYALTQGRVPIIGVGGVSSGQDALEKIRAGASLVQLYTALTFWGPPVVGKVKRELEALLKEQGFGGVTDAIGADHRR
Assay: Inhibition of recombinant N-terminal His-tagged human DHODH (31 to 395 residues) expressed in Escherichia coli using DL-dihydroorotic acid as substrate and Q0 as coenzyme by DCIP based assay
measuredParameter: IC50 (µM)

compound	uom	comparisonOperator	endpointResult
C/C(=C\Cc1c(O)c(Cl)c(C)c(C=O)c1O)CC/C=C(\C)CC[C@@H]1OC1(C)C	µM	=	1.6
C/C(=C\Cc1c(O)c(Cl)c(C)c(C=O)c1O)[C@H](O)C[C@@]1(C)[C@H](C)CCC(=O)[C@@H]1C	µM	=	6.5
C/C(=C\Cc1c(O)c(Cl)c(C)c(C=O)c1O)CC[C@@]1(C)[C@H](C)CCC(=O)[C@@H]1C [ILICICOLIN C]	µM	=	1.9
CC(/C=C/[C@@]1(C)[C@H](C)CCC(=O)[C@@H]1C)=C\Cc1c(O)c(Cl)c(C)c(C=O)c1O [ASCOCHLORIN]	µM	=	1.3
C/C(=C\Cc1c(O)cc(C)c(C=O)c1O)CC[C@@]1(C)[C@H](C)CCC(=O)[C@@H]1C [ILICICOLIN F]	µM	=	11
C=C(/C=C/[C@@]1(C)[C@H](C)CCC(=O)[C@@H]1C)[C@H](O)Cc1c(O)c(Cl)c(C)c(C=O)c1O	µM	=	3.9
C/C(=C\Cc1c(O)c(Cl)c(C)c(C=O)c1O)CC[C@H]1C(C)(C)C(=O)CC[C@@]1(C)O	µM	=	11
C=C1CCC(=O)C(C)(C)[C@@H]1CC/C(C)=C/Cc1c(O)c(Cl)c(C)c(C(=O)O)c1O	µM	=	15
Cc1c(Cl)c(O)c(C[C@@H]2[C@@]3(C)CC[C@H](O)C(C)(C)[C@@H]3CC[C@@]2(C)O)c(O)c1C=O	µM	=	31
C/C(=C\Cc1c(O)c(Cl)c(C)c(C=O)c1O)CC/C=C(\C)[C@@H]1C[C@H](O)C(C)(C)O1	µM	=	0.72
C/C(=C\Cc1c(O)c(Cl)c(C)c(C=O)c1O)CC[C@H]1C(C)(C)C(=O)CC[C@]1(C)O	µM	=	34
C/C(=C\Cc1c(O)cc(C)c(C=O)c1O)CC/C=C(\C)CC[C@H](O)C(C)(C)O	µM	=	5
CC(/C=C/[C@@]1(C)[C@H](C)CCC(=O)[C@@H]1C)=C\Cc1c(O)cc(C)c(C=O)c1O	µM	=	42
C/C(=C\Cc1c(O)c(Cl)c(C)c(C=O)c1O)CC/C=C(\C)[C@@H]1CC(=O)C(C)(C)O1 [ASCOFURANONE]	µM	=	5.4
CC(=O)O[C@@H](CC/C(C)=C/CC/C(C)=C/Cc1c(O)c(Cl)c(C)c(C=O)c1O)C(C)(C)O	µM	=	30
C/C(=C\Cc1c(O)c(Cl)c(C)c(C(=O)O)c1O)CC/C=C(\C)CC[C@H](O)C(C)(C)O	µM	=	20
C/C(=C\Cc1c(O)c(Cl)c(C)c(C=O)c1O)CC/C=C(\C)CCC(=O)C(C)(C)O	µM	=	9.3
C/C(=C\Cc1c(O)cc(C)c(C=O)c1O)CC/C=C(\C)CCC(=O)C(C)(C)O	µM	=	7.9
C/C(=C\Cc1c(O)c(Cl)c(C)c(C=O)c1O)CC/C(C)=C(\C)C(C)CCCO (stereo not given)	µM	=	32
C/C(=C\Cc1c(O)c(Cl)c(C)c(C=O)c1O)CC/C=C(\C)CC[C@H](O)C(C)(C)O	µM	=	3.7
C/C(=C\C[C@@]1(C)[C@H](C)CCC(=O)[C@@H]1C)[C@@H](O)Cc1c(O)c(Cl)c(C)c(C=O)c1O	µM	=	4.7
CC(/C=C/[C@@]1(C)[C@H](C)CC[C@@H](O)[C@@H]1C)=C\Cc1c(O)c(Cl)c(C)c(C=O)c1O	µM	=	13
C=C(C)[C@@H](O)CC/C(C)=C/CC/C(C)=C/Cc1c(O)c(Cl)c(C)c(C=O)c1O	µM	=	0.39
C=C1CC[C@H](O)C(C)(C)[C@@H]1CC/C(C)=C/Cc1c(O)c(Cl)c(C)c(C=O)c1O	µM	=	0.074
Cc1c(Cl)c2c(c(O)c1C=O)C[C@H]([C@@](C)(O)/C=C/[C@@]1(C)[C@H](C)CCC(=O)[C@@H]1C)O2	µM	>	60
